- Assayed system: MMP-13CD (catalytic domain of collagenase 3) (Homo sapiens, UniProt P45452)
- Test name: Thiopeptolide hydrolysis assay, MMP-13CD
- Type: biochemical
- Cond: thiopeptolide substrate, HEPES pH 7.0, 22° C.
Recorded endpoint: IC50 (µM)

Consider the molecule CC1(C)SCCN(S(=O)(=O)c2ccc(-c3ccc4ccccc4c3)cc2)[C@H]1C(=O)O [Example 36] and give its measured IC50. 0.0108

A: COc1cc(-c2ccc(S(=O)(=O)N3CCSC(C)(C)[C@@H]3C(=O)O)cc2)cc(OC)c1OC [Example 55]
B: Cc1ccc(-c2ccc(S(=O)(=O)N3CCSC(C)(C)[C@@H]3C(=O)O)cc2)s1 [Example 52]
Lab note: check whether A or B has the lower measured IC50. # answer = label of selected item B

----------
- Assayed system: MMP-3CD (catalytic domain of stromelysin-1) (Homo sapiens)
- Test name: Thiopeptolide hydrolysis assay, MMP-3CD
- Type: biochemical
- Cond: thiopeptolide substrate, MES pH 6.0
Recorded endpoint: IC50 (µM)

Consider the compound CC1(C)SCCN(S(=O)(=O)c2ccc(-c3ccc(CO)cc3)cc2)[C@H]1C(=O)O [Example 5] and give its measured IC50. 0.027

1: CC1(C)SCCN(S(=O)(=O)c2ccc(-c3ccc(F)c(F)c3)cc2)[C@H]1C(=O)O [Example 41]
2: CC1(C)SCCN(S(=O)(=O)c2ccc(-c3ccc(F)cc3)cc2)[C@H]1C(=O)O [Example 32]
Lab note: check whether 1 or 2 has the lower measured IC50. # answer = label of selected item 2
(2: 0.0365 µM, 1: 0.054 µM)

----------
- Assayed system: MMP-13CD (catalytic domain of collagenase 3) (Homo sapiens, UniProt P45452)
- Test name: Thiopeptolide hydrolysis assay, MMP-13CD
- Type: biochemical
- Cond: thiopeptolide substrate, HEPES pH 7.0, 22° C.
Recorded endpoint: IC50 (µM)

Answered cases to consult:
Consider the compound COc1cccc(OC)c1-c1ccc(S(=O)(=O)N2CCSC(C)(C)[C@@H]2C(=O)O)cc1 and give its measured IC50. 25.5

Consider the compound CC1(C)SCCN(S(=O)(=O)c2ccc(-c3ccc(F)c(F)c3)cc2)[C@H]1C(=O)O and give its measured IC50. 0.3

a: CC1(C)SCCN(S(=O)(=O)c2ccc(-c3ccc(CO)cc3)cc2)[C@H]1C(=O)O
b: CC1(C)SCCN(S(=O)(=O)c2ccc(-c3cccc(C=O)c3)cc2)[C@H]1C(=O)O
Param pair: a , b . Output: the one whose IC50 is numerically greater. # answer = label of selected item a
(a: 0.047 µM, b: 0.021 µM)

----------
- Assayed system: MMP-3CD (catalytic domain of stromelysin-1) (Homo sapiens, UniProt P08254)
- Sequence (P08254 100-272 limits assumed): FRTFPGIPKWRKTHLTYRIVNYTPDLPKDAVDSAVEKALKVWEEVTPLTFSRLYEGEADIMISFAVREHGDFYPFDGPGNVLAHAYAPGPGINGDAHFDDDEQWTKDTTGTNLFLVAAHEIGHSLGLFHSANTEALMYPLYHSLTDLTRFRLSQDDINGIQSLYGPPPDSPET
- Test name: Thiopeptolide hydrolysis assay, MMP-3CD
- Type: biochemical
- Cond: thiopeptolide substrate, MES pH 6.0
Recorded endpoint: IC50 (µM)

I: CC1(C)SCCN(S(=O)(=O)c2ccc(-c3cccc(Cl)c3)cc2)[C@H]1C(=O)O [Example 34]
II: CC1(C)SCCN(S(=O)(=O)c2ccc(-c3ccc(Br)cc3)cc2)[C@H]1C(=O)O [Example 1]
III: CC1(C)SCCN(S(=O)(=O)c2ccc(-c3ccc(Cl)cc3Cl)cc2)[C@H]1C(=O)O [Example 56]
Reorder: IC50, max to min. Return value: ordered labels per request. III, I, II

Cited source for all entries: patent US6686355B2
